FYI, the data here is from ChEMBL document CHEMBL3112398.

Assay: AUC (0 to 6 hrs) in Sprague-Dawley rat CSF at 10 mg/kg, sc by quantitative microdialysis method
Assay type: ADME, organism-based
Parameters: time < 6 hr, dose 10 mg/kg, route subcutaneous
readout.kind: AUC(0-t) at 6 h (ng·h/mL)

INSERT INTO assay_data (compound, experimental_value) VALUES
  ('COc1cc(C(O)P(=O)(O)CC[C@H](N)C(=O)O)cc([N+](=O)[O-])c1O (mixture of isomers)', 3500);

---

Tested on: MDR1
Test: Apparent permeability from apical to basolateral side in MDCK cells expressing MDR1
Type: ADME, cell-based, Canis lupus familiaris
Conditions: dog
readout.kind: Papp A→B (×10⁻⁶ cm/s)

INSERT INTO assay_data (compound, readout_kind, experimental_value) VALUES
  ('COc1cc(C(O)P(=O)(O)CC[C@H](N)C(=O)O)cc([N+](=O)[O-])c1O (mixture of isomers)', 'Papp A→B', 0.2);

---

Experiment: Fraction unbound in mouse plasma
Format: ADME, cell-free
readout.kind: fraction unbound

INSERT INTO assay_data (molecule, readout_kind, experimental_value) VALUES
  ('COc1cc(C(O)P(=O)(O)CC[C@H](N)C(=O)O)cc([N+](=O)[O-])c1O (mixture of isomers)', 'fraction unbound', '> 0.99');

---

Experiment: AUC (0 to 6 hrs) in Sprague-Dawley rat plasma at 10 mg/kg, sc by quantitative microdialysis method
Type: ADME, organism-based
Set-up: time < 6 hr, dose 10 mg/kg, route subcutaneous
readout.kind: AUC(0-t) at 6 h (ng·h/mL)

INSERT INTO results (compound, experimental_value) VALUES
  ('COc1cc(C(O)P(=O)(O)CC[C@H](N)C(=O)O)cc([N+](=O)[O-])c1O (mixture of isomers)', 30000);

---

Target: Metabotropic glutamate receptor 4 (Homo sapiens, UniProt Q14833)
Sequence (Q14833 whole entry): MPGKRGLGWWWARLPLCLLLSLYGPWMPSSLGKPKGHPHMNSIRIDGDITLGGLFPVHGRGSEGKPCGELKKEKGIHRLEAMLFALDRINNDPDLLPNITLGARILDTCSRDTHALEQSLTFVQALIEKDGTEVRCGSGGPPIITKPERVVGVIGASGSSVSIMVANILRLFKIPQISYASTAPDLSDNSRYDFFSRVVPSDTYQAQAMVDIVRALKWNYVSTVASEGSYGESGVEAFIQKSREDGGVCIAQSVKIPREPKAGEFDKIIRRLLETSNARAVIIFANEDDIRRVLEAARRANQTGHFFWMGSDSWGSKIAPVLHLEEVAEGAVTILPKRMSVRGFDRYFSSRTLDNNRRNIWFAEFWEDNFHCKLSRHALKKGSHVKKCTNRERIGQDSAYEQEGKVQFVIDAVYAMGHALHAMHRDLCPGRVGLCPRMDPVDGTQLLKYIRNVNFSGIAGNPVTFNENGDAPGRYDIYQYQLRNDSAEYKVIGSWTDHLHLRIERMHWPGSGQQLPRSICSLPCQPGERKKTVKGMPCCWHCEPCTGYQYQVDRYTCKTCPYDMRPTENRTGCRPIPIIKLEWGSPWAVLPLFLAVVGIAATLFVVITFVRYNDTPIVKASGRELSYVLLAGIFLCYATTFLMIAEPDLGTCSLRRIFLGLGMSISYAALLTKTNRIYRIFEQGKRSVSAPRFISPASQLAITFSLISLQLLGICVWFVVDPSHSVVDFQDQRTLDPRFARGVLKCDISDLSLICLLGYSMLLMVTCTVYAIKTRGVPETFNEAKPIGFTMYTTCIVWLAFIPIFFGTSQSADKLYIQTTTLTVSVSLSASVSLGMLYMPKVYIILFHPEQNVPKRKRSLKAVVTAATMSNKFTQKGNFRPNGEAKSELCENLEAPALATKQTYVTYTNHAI
readout.kind: IC50 (µM)

INSERT INTO measurements (compound, readout_kind, units, experimental_value) VALUES
  ('COc1cc(C(O)P(=O)(O)CC[C@H](N)C(=O)O)cc([N+](=O)[O-])c1O (mixture of isomers)', 'IC50', 'µM', 8.6);

---

Assay: Thermodynamic solubility of the compound at pH 7.4
Type: physicochemical
Settings: buffer, read-out: Therm_solubility
readout.kind: solubility thermodynamic

INSERT INTO assay_data (molecule, experimental_value) VALUES
  ('COc1cc(C(O)P(=O)(O)CC[C@H](N)C(=O)O)cc([N+](=O)[O-])c1O (mixture of isomers)', '> 1800 µg/mL');

---

Assay: Plasma clearance in Sprague-Dawley rat at 1 mg/kg, iv
Assay type: ADME, organism-based
Parameters: dose 1 mg/kg, route intravenous
readout.kind: clearance (mL/min/kg)

INSERT INTO results (molecule, experimental_value) VALUES
  ('COc1cc(C(O)P(=O)(O)CC[C@H](N)C(=O)O)cc([N+](=O)[O-])c1O (mixture of isomers)', 6.2);

---

Assay: Half life in Sprague-Dawley rat at 1 mg/kg, iv
Format: ADME, organism-based
Set-up: dose 1 mg/kg, route intravenous
Settings: in vivo
readout.kind: half-life (min)

INSERT INTO results (molecule, readout_kind, experimental_value) VALUES
  ('COc1cc(C(O)P(=O)(O)CC[C@H](N)C(=O)O)cc([N+](=O)[O-])c1O (mixture of isomers)', 'half-life', 18);
